Target: Lyn kinase (Homo sapiens)
Sequence (P07948 whole entry): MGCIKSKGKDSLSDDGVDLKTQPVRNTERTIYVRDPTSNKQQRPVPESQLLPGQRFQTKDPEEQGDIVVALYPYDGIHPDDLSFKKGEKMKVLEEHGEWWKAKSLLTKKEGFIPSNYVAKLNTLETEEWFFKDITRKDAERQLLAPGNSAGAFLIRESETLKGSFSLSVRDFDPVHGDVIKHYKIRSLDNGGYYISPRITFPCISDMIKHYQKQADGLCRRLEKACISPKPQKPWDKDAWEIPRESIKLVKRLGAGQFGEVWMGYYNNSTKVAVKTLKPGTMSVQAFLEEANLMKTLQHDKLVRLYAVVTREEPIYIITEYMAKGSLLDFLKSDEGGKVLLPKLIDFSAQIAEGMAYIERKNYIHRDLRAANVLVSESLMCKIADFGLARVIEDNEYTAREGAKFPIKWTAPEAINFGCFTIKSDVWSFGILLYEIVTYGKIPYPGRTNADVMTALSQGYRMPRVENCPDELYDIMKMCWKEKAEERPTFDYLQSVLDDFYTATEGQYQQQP
pIC50: −log10 of the molar value.
Tick Yes if pIC50 is 7 or greater. Tick No if pIC50 is less than 7.

Quick check: does CNCc1cncc(-c2cnc3[nH]nc(-c4nc5ccc(OC)cc5[nH]4)c3c2)c1 [Cpd 97] have pIC50 greater than or equal to 7?
Yes

Please give the result for COCc1cccc2[nH]c(-c3n[nH]c4ncc(-c5cncc(OC)c5)cc34)nc12 [Cpd 64] too.
No

Please give the result for COCc1cccc2[nH]c(-c3n[nH]c4ncc(-c5cncc(CN6CCOCC6)c5)cc34)nc12 [Cpd 54] too.
No

Please give the result for CCN(CC)Cc1cccc2[nH]c(-c3n[nH]c4ncc(-c5cccnc5)cc34)nc12 [Cpd 52] too.
No

Please give the result for c1ccc2c(-c3cnc4[nH]nc(-c5nc6cc(N7CCOCC7)ccc6[nH]5)c4c3)cncc2c1 [Cpd 51] too.
Yes

Please give the result for O=C(Nc1cccnc1)c1cccc2[nH]c(-c3n[nH]c4ncc(-c5cncc6ccccc56)cc34)nc12 [Cpd 48] too.
Yes

Please give the result for CNCc1cncc(-c2cnc3[nH]nc(-c4nc5cc(N6CCN(C)CC6)ccc5[nH]4)c3c2)c1 [Cpd 81] too.
No

Please give the result for Fc1ccc2nc(-c3n[nH]c4ncc(-c5cccnc5)cc34)[nH]c2c1 [Cpd 92] too.
No

Please give the result for CN1CCN(c2ccc3[nH]c(-c4n[nH]c5ncc(-c6cncc7ccccc67)cc45)nc3c2)CC1 [Cpd 31] too.
Yes

* * *

Molecular target: RET (Homo sapiens);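 note: biotinylated peptide substrate captured on streptavidin FlashPlate, 33P phosphate transfer read by scintillation counting, 1% DMSO, lower incorporation means inhibition, percent relative to per-plate maximum and minimum signals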
Sequence (P07949 658-1114 limits assumed): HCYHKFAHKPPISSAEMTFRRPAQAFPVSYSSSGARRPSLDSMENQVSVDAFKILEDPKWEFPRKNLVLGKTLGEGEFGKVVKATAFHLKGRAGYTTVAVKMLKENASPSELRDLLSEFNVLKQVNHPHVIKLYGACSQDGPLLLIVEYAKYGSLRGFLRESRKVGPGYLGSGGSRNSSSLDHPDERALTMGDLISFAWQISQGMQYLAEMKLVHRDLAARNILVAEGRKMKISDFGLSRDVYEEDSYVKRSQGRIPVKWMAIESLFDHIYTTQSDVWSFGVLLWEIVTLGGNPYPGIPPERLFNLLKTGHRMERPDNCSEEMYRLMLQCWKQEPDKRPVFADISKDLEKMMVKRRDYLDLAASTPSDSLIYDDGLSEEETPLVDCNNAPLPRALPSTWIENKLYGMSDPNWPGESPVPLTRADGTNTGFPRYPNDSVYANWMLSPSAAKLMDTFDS
Field: IC50. Provide a value for each of the compounds that follow.

Fill in: IC50 of O=C(c1cccc2[nH]c(-c3n[nH]c4ncc(-c5cncc6ccccc56)cc34)nc12)N1CCOCC1 [Cpd 24] is ___
~100 µM

Please give the result for CN(C)CCNC(=O)c1cccc2[nH]c(-c3n[nH]c4ncc(-c5cncc6ccccc56)cc34)nc12 [Cpd 25] too.
> 100 µM

Please give the result for CCN1CCN(Cc2cccc3[nH]c(-c4n[nH]c5ncc(-c6cncc7ccccc67)cc45)nc23)CC1 [Cpd 10] too.
> 10 µM

Please give the result for CCCCNCc1cncc(-c2cnc3[nH]nc(-c4nc5c(COC)cccc5[nH]4)c3c2)c1 [Cpd 79] too.
> 10 µM

Please give the result for NC1CCC(NC(=O)c2cccc3[nH]c(-c4n[nH]c5ncc(-c6cncc7ccccc67)cc45)nc23)CC1 (centres unmarked) [Cpd 45] too.
> 100 µM

Please give the result for CN(C)Cc1cncc(-c2cnc3[nH]nc(-c4nc5cc(N6CCN(C)CC6)ccc5[nH]4)c3c2)c1 [Cpd 88] too.
0.104 µM

Please give the result for c1ccc2c(-c3cnc4[nH]nc(-c5nc6c(COCCN7CCOCC7)cccc6[nH]5)c4c3)cncc2c1 [Cpd 15] too.
0.929 µM

Please give the result for COCc1cccc2[nH]c(-c3n[nH]c4ncc(-c5cncc(CNC(C)C)c5C)cc34)nc12 [Cpd 58] too.
> 10 µM
